# credit: paper PMC3758491

target: murine AChE (mAChE) (Mus musculus, UniProt P21836); assay: biochemical; format: binding; conditions: IC50, TFT assay
Sequence (P21836 32-614): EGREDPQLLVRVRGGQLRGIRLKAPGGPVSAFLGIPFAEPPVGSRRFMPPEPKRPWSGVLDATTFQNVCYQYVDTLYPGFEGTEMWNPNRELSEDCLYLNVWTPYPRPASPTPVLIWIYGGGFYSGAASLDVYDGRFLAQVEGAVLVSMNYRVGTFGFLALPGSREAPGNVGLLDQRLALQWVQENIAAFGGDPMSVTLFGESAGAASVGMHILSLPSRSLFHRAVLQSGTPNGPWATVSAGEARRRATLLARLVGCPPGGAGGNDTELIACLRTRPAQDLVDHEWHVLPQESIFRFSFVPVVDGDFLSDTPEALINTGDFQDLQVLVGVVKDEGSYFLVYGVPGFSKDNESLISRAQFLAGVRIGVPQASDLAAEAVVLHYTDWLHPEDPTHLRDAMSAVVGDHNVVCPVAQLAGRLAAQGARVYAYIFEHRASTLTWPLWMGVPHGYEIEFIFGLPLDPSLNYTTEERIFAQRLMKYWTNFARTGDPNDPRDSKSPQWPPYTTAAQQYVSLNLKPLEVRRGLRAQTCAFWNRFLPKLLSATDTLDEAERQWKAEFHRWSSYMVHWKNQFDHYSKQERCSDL
List of IC50 values.
Measurement Type: IC50

1) CC[N+](C)(CC)CCC[n+]1c(-c2ccccc2)c2cc(N)ccc2c2ccc(N)cc21 [Propidium Iodide, propidium iodide] :: 0.7 µM
2) COc1cc2c3cc1Oc1cc(ccc1O)C[C@@H]1c4c(cc(OC)c(O)c4Oc4ccc(cc4)C[C@@H]3N(C)CC2)CC[N+]1(C)C :: 50 to 70 µM

###

target: UniProt:P21836; experiment: biochemical; conditions: IC50 values (Mean ± SEM), Reduction of AChE activity
pIC50: −log10 of the molar value.
List of pIC50 values.
Measurement Type: pIC50

1) Cc1nc(N(C)C)nc(OC(=O)N(C)C)c1C :: 6.13
2) CNC(=O)Oc1ccccc1OC(C)C :: 6.33
3) CC[N+](C)(C)c1cccc(O)c1 :: 5.46
4) COc1cc2c3cc1Oc1cc(ccc1O)C[C@@H]1c4c(cc(OC)c(O)c4Oc4ccc(cc4)C[C@@H]3N(C)CC2)CC[N+]1(C)C :: 4.16
5) CCC(C)CSc1ccccc1OC(=O)NC (stereo not shown) :: 4.99
6) CC[N+](C)(CC)CCC[n+]1c(-c2ccccc2)c2cc(N)ccc2c2ccc(N)cc21 [Propidium Iodide, propidium iodide] :: 6.18
7) CNC(=O)Oc1cccc2c1OC(C)(C)O2 :: 7.34
8) CNC(=O)Oc1cccc(C(C)(C)C)c1 [Compound 1, 3-tert-butylphenyl methylcarbamate] :: 7.21
9) CNC(=O)O/N=C/C(C)(C)SC :: 6.19
10) CC[n+]1c(-c2ccccc2)c2cc(N)ccc2c2ccc(N)cc21 [Ethidium Bromide, ethidium bromide] :: 5.40
